system: P388 leukemia ip, CD2F1 mice, survival T/C; experiment: NCI In Vivo Anticancer Drug Screen. Data for tumor model P388 Leukemia (intraperitoneal) in CD2F1 (CDF1) mice; conditions: endpoint: median survival time; dose: 50.0 mg/kg/injection; schedule: Q01DX009 (ip); vehicle: Klucel (hydroxypropylcellulose) (HPC); higher = longer survival
Toxic doses and inconclusive results are not listed.
measurement-type: T/C

query: Let me know recorded T/C for COc1ccc(N=Nc2c(C)nn(C(=O)c3ccncc3)c2C)cc1 , thanks.
result: 108 % of control

query: Let me know recorded T/C for O=C1NC(=O)N2CCCOC2C1c1ccccc1 (stereo not drawn) , thanks.
result: 103 % of control

query: Let me know recorded T/C for CN(C)C(C#N)C(=O)c1ccccc1 (stereo not drawn) , thanks.
result: 110 % of control

query: Let me know recorded T/C for CCCSCCC(C)(N)C(=O)O (stereo not drawn) , thanks.
result: 91 % of control

query: Let me know recorded T/C for CC(=O)OCc1c(COC(C)=O)c(-c2ccccc2)n2c1CCC2 , thanks.
result: 87 % of control

query: Let me know recorded T/C for CC1NC(=O)C(C)NC1=O (stereo not drawn) , thanks.
result: 93 % of control

query: Let me know recorded T/C for CCCCCC(CC(=O)O)C(N)C(=O)O (stereo not drawn) , thanks.
result: 104 % of control

query: Let me know recorded T/C for C1=NC(c2ccccn2)=NNC(c2ccccn2)=C1c1ccccc1 , thanks.
result: 93 % of control

query: Let me know recorded T/C for CC(=O)NCCSC(=O)C(O)(c1ccccc1)c1ccccc1 , thanks.
result: 100 % of control

query: Let me know recorded T/C for CCCC(=O)C(=O)c1ccc(O)cc1O , thanks.
result: 108 % of control

query: Let me know recorded T/C for CCC1C(=O)OCCOCCOCCOCCOCCOC1=O , thanks.
result: 100 % of control

query: Let me know recorded T/C for CCc1cccc(NC(=O)NNC(=O)c2ccncc2)c1 , thanks.
result: 96 % of control

query: Let me know recorded T/C for O=NN(Cc1ccc(Cl)cc1)NC1=NCCN1 , thanks.
result: 98 % of control

* * *

tested on: P388 leukemia ip, CD2F1 mice, survival T/C; assay: NCI In Vivo Anticancer Drug Screen. Data for tumor model P388 Leukemia (intraperitoneal) in CD2F1 (CDF1) mice; conditions: endpoint: median survival time; dose: 200.0 mg/kg/injection; schedule: Q01DX005 (ip); vehicle: Klucel (hydroxypropylcellulose) (HPC); higher = longer survival
Toxic doses and inconclusive results are not listed.
measurement-type: T/C

query: Let me know recorded T/C for N#CCCN(CCC#N)P(=O)(N(CCC#N)CCC#N)N(CCC#N)CCC#N , thanks.
result: 100 % of control

query: Let me know recorded T/C for O=C(c1ccccc1)c1cnc2ccccc2c1 , thanks.
result: 104 % of control

query: Let me know recorded T/C for CCOc1cc2c(cc1C(CC)c1ccccc1)OCO2 (stereo not drawn) , thanks.
result: 95 % of control

query: Let me know recorded T/C for CC(=O)OC1C(C)C2CCC13CC=C(C)CC23 (stereo not drawn) , thanks.
result: 110 % of control

query: Let me know recorded T/C for CCOP(=S)(N/N=C(/c1ccc(C)s1)C(F)(F)F)OCC , thanks.
result: 114 % of control

query: Let me know recorded T/C for O=C1c2ccccc2C2(O)C3c4ccccc4CCN3CN12 (stereo not drawn) , thanks.
result: 101 % of control

query: Let me know recorded T/C for CCc1c(C#N)c(N)c2c(N)c(C(=O)c3ccccc3)sc2c1C , thanks.
result: 95 % of control

query: Let me know recorded T/C for C=CC(=O)OCCCN(CCCC)CCCC , thanks.
result: 105 % of control

query: Let me know recorded T/C for NCCn1c(-c2ccccc2)nc2ccccc2c1=O , thanks.
result: 109 % of control

query: Let me know recorded T/C for O=c1oc2c(cc1-c1ccccc1)CCCC2 , thanks.
result: 103 % of control

query: Let me know recorded T/C for O=C1S/C(=C2\C(=O)N(CN3CCOCC3)c3ccc(Br)cc32)C(=O)N1CN1CCOCC1 , thanks.
result: 102 % of control

query: Let me know recorded T/C for CCN(C)N=Nc1ccc(C(N)=O)cc1 , thanks.
result: 89 % of control

query: Let me know recorded T/C for C1OCOCO1 , thanks.
result: 109 % of control
